Organism: Rattus norvegicus
RUN_DESCRIPTION: Open TG-GATES - Regimen: Single
Assay type: toxicity, organism-based, Sprague-Dawley
Parameters: regimen Single, gender Male, age 6 weeks
ASSAY_CONTEXT: in vivo, po, 0 mg/kg, 6 h, tissue Plasma, route gavage, dose level Control
What Na was measured for each of the following?
Give a bare numeral; the unit meq/L is implied.

// returns reported Na for input O=C(O)c1cn(C2CC2)c2cc(N3CCNCC3)c(F)cc2c1=O [CIPROFLOXACIN] 138.2

// returns reported Na for input CCc1cc(C(N)=S)ccn1 [ETHIONAMIDE] 139

// returns reported Na for input CSc1ccc2c(c1)N(CCC1CCCCN1C)c1ccccc1S2 (configuration not stated) [THIORIDAZINE] 137.4

// returns reported Na for input NC(=O)N1c2ccccc2C=Cc2ccccc21 [CARBAMAZEPINE] 140.2

// returns reported Na for input O=C(O)c1cc(/N=N/c2ccc(S(=O)(=O)Nc3ccccn3)cc2)ccc1O [SULFASALAZINE] 140.6

// returns reported Na for input Cn1c(=O)c2[nH]cnc2n(C)c1=O.O [THEOPHYLLINE] 142.6

// returns reported Na for input C[C@H](CS)C(=O)N1CCC[C@H]1C(=O)O [CAPTOPRIL] 139

// returns reported Na for input COc1ccc(Cc2nccc3cc(OC)c(OC)cc23)cc1OC [PAPAVERINE] 140.8

// returns reported Na for input Clc1ccccc1CN1CCc2sccc2C1 [TICLOPIDINE] 141.4

// returns reported Na for input NC(=O)N/N=C/c1ccc([N+](=O)[O-])o1 [NITROFURAZONE] 140.6

// returns reported Na for input CC(=O)Oc1ccccc1C(=O)O [ASPIRIN] 141.2

// returns reported Na for input CN(C)CCC=C1c2ccccc2CCc2ccccc21 [AMITRIPTYLINE] 142.6

---

Species on record: Rattus norvegicus
RUN_DESCRIPTION: Open TG-GATES - Regimen: Daily Repeat
Assay type: toxicity, organism-based, Sprague-Dawley
Set-up: regimen Daily Repeat, gender Male, age 6 weeks
ASSAY_CONTEXT: in vivo, po, 0 mg/kg, […], tissue Plasma, route gavage, dose level Control, time 7 day
METRIC_NAME: DBIL (mg/dL)
Give a bare numeral; the unit mg/dL is implied.

// returns reported DBIL for input CCc1cc(C(N)=S)ccn1 [ETHIONAMIDE] 0.064

// returns reported DBIL for input NC(=O)N/N=C/c1ccc([N+](=O)[O-])o1 [NITROFURAZONE] 0.022

// returns reported DBIL for input CC(=O)Oc1ccccc1C(=O)O [ASPIRIN] 0.096

// returns reported DBIL for input Clc1ccccc1CN1CCc2sccc2C1 [TICLOPIDINE] 0.066

// returns reported DBIL for input CN(C)CCC=C1c2ccccc2CCc2ccccc21 [AMITRIPTYLINE] 0.014

// returns reported DBIL for input CCCC(CCC)C(=O)O [VALPROIC ACID] 0.08

---

Species: Rattus norvegicus
RUN_DESCRIPTION: Open TG-GATES - Regimen: Single
Type: toxicity, organism-based, Sprague-Dawley
Set-up: regimen Single, gender Male, age 6 weeks
ASSAY_CONTEXT: in vivo, po, 100 mg/kg, 24 h, tissue Blood, route gavage, dose level Low
METRIC_NAME: RBC (x10_4/ul)
Give a bare numeral; the unit x10_4/ul is implied.

// returns reported RBC for input C[C@H](CS)C(=O)N1CCC[C@H]1C(=O)O 604.4

// returns reported RBC for input O=C(O)c1cn(C2CC2)c2cc(N3CCNCC3)c(F)cc2c1=O 610.4

// returns reported RBC for input CCc1cc(C(N)=S)ccn1 [ETHIONAMIDE] 663

// returns reported RBC for input Clc1ccccc1CN1CCc2sccc2C1 624.4

// returns reported RBC for input O=C(O)c1cc(/N=N/c2ccc(S(=O)(=O)Nc3ccccn3)cc2)ccc1O 624
